Test system: HTT CJ mRNA
Method: Gene panel canonical junction qPCR assay: HTT
Assay type: cell-based
Setup conditions: Table 3, concentration having 50% response in CJ decrease, read-out: HTT IC50 (decrease in CJ mRNA levels)
pIC50: −log10 of the molar value.
Below, each entry is listed with its recorded pIC50.

The measured pIC50 associated with "Cc1cn2cc(NC(=O)c3sc(C4CCN(C)CC4)cc3F)cc(F)c2n1" reads 5.00 to 6.00

New cases:
The measured pIC50 associated with "COc1cc(C2CCNCC2)sc1C(=O)Nc1cc(F)c2nc(C)cn2c1" reads < 8.00

The measured pIC50 associated with "Cc1cn2cc(NC(=O)c3sc(N4CCNCC4)cc3F)cc(F)c2n1" reads 5.00 to 6.00

The measured pIC50 associated with "Cc1cn2cc(NC(=O)c3sc(N4CCC(NC(C)(C)C)CC4)cc3F)cc(F)c2n1" reads < 8.00

The measured pIC50 associated with "Cc1cn2cc(NC(=O)c3ccc(C4CCNCC4)s3)cc(F)c2n1" reads 6.00 to 7.00
